Test system: Cryptococcus neoformans
Assay: Antifungal activity against Cryptococcus neoformans ATCC 32719 assessed as inhibition of cell wall synthesis incubated for 24 hrs in absence of sorbitol
Format: functional
Please respond with reported MIC for every item in the list.
Numbers only, in µg/mL.

Here are 3 compounds together with their reported answers.
[[record]]
compound = "O=C(/C=C/C(=O)Nc1ccc2c(c1)C(=O)NC1(CCSC1)N2)Nc1ccc(Br)cc1 (stereo unspecified)"
tgt = "Cryptococcus neoformans"
property_measured = "MIC"
reported = 8

[[record]]
compound = "NC(=O)OC[C@H](O)[C@@H](O)[C@H](N)C(=O)N[C@H](C(=O)O)[C@H]1O[C@@H](n2cc(CO)c(=O)[nH]c2=O)[C@H](O)[C@@H]1O [POLYOXIN B]"
tgt = "Cryptococcus neoformans"
property_measured = "MIC"
reported = 16

[[record]]
compound = "Cc1ccc([N+](=O)[O-])cc1NC(=O)/C=C/C(=O)Nc1ccc2c(c1)C(=O)NC1(CCSC1)N2 (stereo unspecified)"
tgt = "Cryptococcus neoformans"
property_measured = "MIC"
reported = 16


Provide the reported MIC of each entry below, same order.
1. O=C(/C=C/C(=O)Nc1ccc(Cl)cc1Cl)Nc1ccc2c(c1)C(=O)NC1(CCSC1)N2 (stereo unspecified)
2. O=C(/C=C/C(=O)Nc1ccccc1[N+](=O)[O-])Nc1ccc2c(c1)C(=O)NC1(CCSC1)N2 (stereo unspecified)
3. O=C(/C=C/C(=O)Nc1ccc2c(c1)C(=O)NC1(CCSC1)N2)Nc1ccc([N+](=O)[O-])cc1 (stereo unspecified)

Found:
1: 16; 2: 8; 3: 4

====

Test system: Candida albicans
Assay: Antifungal activity against Candida albicans ATCC 76615 assessed as fungal growth inhibition incubated for 24 hrs by two-fold serial dilution method
Type: functional
Provide the recorded MIC for the entries that follow.
One number for each entry, in µg/mL.

Solved entries (count: 5):
[[record]]
compound = "O=C(/C=C/C(=O)Nc1ccc2c(c1)C(=O)NC1(CCSC1)N2)Nc1ccc(Cl)cc1 (centres undefined)"
property_measured = "MIC"
unit_label = "µg/mL"
reported = 64

[[record]]
compound = "O=C(/C=C/C(=O)Nc1ccc(Cl)cc1Cl)Nc1ccc2c(c1)C(=O)NC1(CCSC1)N2 (centres undefined)"
property_measured = "MIC"
unit_label = "µg/mL"
reported = 8

[[record]]
compound = "O=C(/C=C/C(=O)Nc1ccccc1Cl)Nc1ccc2c(c1)C(=O)NC1(CCCC1)N2"
property_measured = "MIC"
unit_label = "µg/mL"
reported = 128

[[record]]
compound = "Cc1ccc(NC(=O)/C=C/C(=O)Nc2ccc3c(c2)C(=O)NC2(CCSC2)N3)cc1 (centres undefined)"
property_measured = "MIC"
unit_label = "µg/mL"
reported = 64

[[record]]
compound = "O=C(/C=C/C(=O)Nc1ccc2c(c1)C(=O)NC1(CCSC1)N2)Nc1ccccc1 (centres undefined)"
property_measured = "MIC"
unit_label = "µg/mL"
reported = 128


Your task in this section: give MIC for each listed record.
1. O=C(/C=C/C(=O)Nc1ccc2c(c1)C(=O)NC1(CCSC1)N2)Nc1ccc(F)c(Cl)c1 (centres undefined)
2. O=C(/C=C/C(=O)Nc1ccc2c(c1)C(=O)NC1(CCCC1)N2)Nc1ccc(F)c(Cl)c1
3. O=C(/C=C/C(=O)Nc1ccc2c(c1)C(=O)NC1(CCOC1)N2)Nc1ccc(F)c(Cl)c1 (centres undefined)

Found:
1: 16; 2: 128; 3: 128

Lookup: In one line, give reported MIC of the entry Cc1ccc([N+](=O)[O-])cc1NC(=O)/C=C/C(=O)Nc1ccc2c(c1)C(=O)NC1(CCSC1)N2 (centres undefined) .
Found: 2

Every entry's value here was drawn from ChEMBL document CHEMBL5365394.
